experimentalSystem: biotinylated labeled human GPC3 protein (produced in-house) (human, UniProt P51654 25-559, limits assumed, biotinylated (Dojindo, Cat. No. LK03); sites not stated)
testMethodNotes: ELISA, biotinylated human GPC3 protein
endpoint: OD450 at 0.02 nM (OD450)
The answer is to be given in OD450; state only the numeric part.

Some entries whose results are on file:
>  <binder>
hAb005LH1L1a (antibody, human IgG1, V domains shown, Humanized F3.54.12; VH H1 + VL L1a; expressed as human IgG1) VH: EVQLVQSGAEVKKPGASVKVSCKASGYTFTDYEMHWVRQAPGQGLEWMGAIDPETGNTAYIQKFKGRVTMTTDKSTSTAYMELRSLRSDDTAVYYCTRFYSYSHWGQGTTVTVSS VL: DIVMTQTPLSLPVTPGEPASISCRSSQSLVHSDGNTYLHWYLQKPGQSPQLLIYKVSNRFSGVPDRFSGSGSGTDFTLKISRVEAEDVGVYYCSQNTHVPPTFGGGTKVEIK

>  <OD450 at 0.02 nM, OD450>
0.051

$$$$
>  <binder>
hAb006LH2L1 (antibody, human IgG1, V domains shown, Humanized F3.38.7; VH H2 + VL L1; expressed as human IgG1) VH: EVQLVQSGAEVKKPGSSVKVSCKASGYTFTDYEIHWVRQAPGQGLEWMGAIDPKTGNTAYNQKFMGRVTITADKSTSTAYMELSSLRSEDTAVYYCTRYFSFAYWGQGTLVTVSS VL: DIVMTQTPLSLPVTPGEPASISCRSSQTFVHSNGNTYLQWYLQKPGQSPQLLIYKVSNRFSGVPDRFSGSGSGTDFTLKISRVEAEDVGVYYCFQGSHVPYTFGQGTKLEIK

>  <OD450 at 0.02 nM, OD450>
1

$$$$

// moving on: another record for OD450 at 0.02 nM
# input I have this binder here, hAb005LH2L1a (antibody, human IgG1, V domains shown, Humanized F3.54.12; VH H2 + VL L1a; expressed as human IgG1) VH: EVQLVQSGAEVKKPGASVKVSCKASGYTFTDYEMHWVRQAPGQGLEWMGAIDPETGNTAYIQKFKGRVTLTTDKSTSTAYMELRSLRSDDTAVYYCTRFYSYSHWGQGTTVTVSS VL: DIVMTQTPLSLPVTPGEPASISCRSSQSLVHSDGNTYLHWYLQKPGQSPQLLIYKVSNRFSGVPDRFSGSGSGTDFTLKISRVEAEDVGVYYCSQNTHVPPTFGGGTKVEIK , and I need its recorded OD450 at 0.02 nM.
# output 0.053

Cited source for all entries: patent US20260116991A1
